# ASSAY_CONDITIONS: in n-hexanol, 298.15 K
QUANTITY_MEASURED: solubility (mole fraction)
Give the figure by itself; no unit, no explanation.

Enquiry: Requested read-out: solubility (mole fraction). Entry: Nc1ccnc(=O)[nH]1
Return: 0.000168

----------
# ASSAY_CONDITIONS: in isopentanol, 298.15 K
QUANTITY_MEASURED: solubility (mole fraction)
Give the figure by itself; no unit, no explanation.

Enquiry: Requested read-out: solubility (mole fraction). Entry: Nc1ccnc(=O)[nH]1
Return: 0.000253

----------
# ASSAY_CONDITIONS: in isopropanol, 303.15 K
QUANTITY_MEASURED: solubility (mole fraction)
Give the figure by itself; no unit, no explanation.

Enquiry: Requested read-out: solubility (mole fraction). Entry: Nc1ccnc(=O)[nH]1
Return: 0.000205
